# PROTOCOL NOTES: Displacement of [35S]TBPS from rat picrotoxin binding site of GABAA receptor after 2 hrs by scintillation counting analysis
MEASURED PARAMETER: pIC50
A value of pIC50 is the negative decimal logarithm of a concentration given in moles per litre.

These recorded examples may help you get a feel for the data.
O=C1C[C@@H]2CC[C@H]3[C@@H](CC[C@@H]4C[C@@H](O)CC[C@H]43)[C@@H]2C1 | 5.69
CO[C@H]1[C@H]2CC[C@@H]3[C@H](CC[C@@]4(C)C(=O)CC[C@@H]34)[C@]2(C)CC[C@@H]1O | 6.70
CO[C@H]1[C@H]2CC[C@H]3[C@@H]4CC(=O)C[C@]4(C)CC[C@@H]3[C@]2(C)CC[C@@H]1O | 7.08
CO[C@H]1C[C@@]2(C)[C@@H](CC[C@@H]3[C@@H]2CC[C@]2(C)C(=O)CC[C@@H]32)C[C@@H]1O | 5.66

Now take the following compound into account.
Query: Can you look up the measured pIC50 of CO[C@@H]1C[C@]2(C)[C@H](CC[C@@H]3[C@@H]2CC[C@@]2(C)C(=O)CC[C@@H]32)C[C@H]1O for me?
Response: 5.19

----------
Let's look at some molecules and their measured TIME.
# Test system: HEK293
# PROTOCOL NOTES: Positive allosteric modulation of wild type rat alpha1beta2gamma2L GABAA receptor expressed in HEK293 cells assessed as OT long at 20 uM by […]
# Assay type: cell-based
Hi! Could you send only the number? It should be in ms, unit omitted.

// solved cases for TIME follow
C[C@@]12CC[C@H](O)C[C@H]1CC[C@H]1[C@@H]3CC(=O)C[C@@H]3CC[C@@H]12 | 16.1
O=C1C[C@@H]2CC[C@H]3[C@@H](CC[C@@H]4C[C@@H](O)CC[C@H]43)[C@@H]2C1 | 11.5
C[C@@]12CC[C@H]3[C@@H](CC[C@@H]4C[C@@H](O)CC[C@]43C)[C@@H]1CC(=O)C2 | 12.4

Query: Given the entry C[C@@]12CC[C@@H]3[C@@H]4CC[C@H](O)C[C@H]4CC[C@H]3[C@@H]1CC(=O)C2 , what TIME was observed with HEK293?
Response: 9.8

Query: Likewise for CO[C@H]1[C@H]2CC[C@H]3[C@@H]4CC(=O)C[C@]4(C)CC[C@@H]3[C@]2(C)CC[C@@H]1O ?
Response: 17.7

----------
# Species: Rattus norvegicus
# PROTOCOL NOTES: Positive allosteric modulation of rat alpha1beta2gamma2L GABAA receptor expressed in Xenopus laevis oocytes assessed as potentiation of GABA-induced chloride current elicitation at 10 uM by two-electrode voltage clamp technique relative to control
# Format: cell-based
Below, each entry is listed alongside its reported Ratio.
Reply briefly: the number, and no unit.

Answered examples (6):
CO[C@H]1[C@H]2CC[C@H]3[C@@H]4CC(=O)C[C@]4(C)CC[C@@H]3[C@]2(C)CC[C@@H]1O | 16
CO[C@H]1[C@H]2CC[C@@H]3[C@H](CC[C@@]4(C)C(=O)CC[C@@H]34)[C@]2(C)CC[C@@H]1O | 12.2
CO[C@@H]1C[C@]2(C)[C@H](CC[C@H]3[C@@H]4CC(=O)C[C@]4(C)CC[C@@H]32)C[C@H]1O | 2.95
CO[C@H]1C[C@@]2(C)[C@@H](CC[C@@H]3[C@@H]2CC[C@]2(C)C(=O)CC[C@@H]32)C[C@@H]1O | 3.39
CO[C@H]1C[C@@]2(C)[C@@H](CC[C@H]3[C@@H]4CC(=O)C[C@@]4(C)CC[C@@H]32)C[C@@H]1O | 4.48
CO[C@H]1[C@H](O)CC[C@]2(C)[C@H]3CC[C@]4(C)CC(=O)C[C@H]4[C@@H]3CC[C@@H]12 | 0.69

We now examine a further compound.
Query: Any idea what Ratio was measured for C[C@]12CC[C@H]3[C@@H](CC[C@H]4C[C@H](O)CC[C@@]43C)[C@@H]1CC(=O)C2 ?
Response: 9.98

----------
# Species: Rattus norvegicus
# PROTOCOL NOTES: Positive allosteric modulation of rat alpha1beta2gamma2L GABAA receptor expressed in Xenopus laevis oocytes assessed as potentiation of GABA-induced chloride current elicitation at 10 uM by two-electrode voltage clamp technique relative to control
# Assay type: cell-based
MEASURED PARAMETER: Ratio
Give the figure by itself; no unit, no explanation.

Query: Which measured Ratio value corresponds to O=C1C[C@@H]2CC[C@H]3[C@@H](CC[C@@H]4C[C@@H](O)CC[C@H]43)[C@@H]2C1 ?
Response: 1.65

Query: Lookup CO[C@@H]1C[C@]2(C)[C@H](CC[C@@H]3[C@@H]2CC[C@@]2(C)C(=O)CC[C@@H]32)C[C@H]1O
Response: 1.53

Query: // same read-out, input: C[C@@]12CC[C@@H]3[C@@H]4CC[C@H](O)C[C@H]4CC[C@H]3[C@@H]1CC(=O)C2
Response: 10.5

Query: Another compound: CC(=O)[C@H]1CC[C@H]2[C@@H]3CC[C@H]4C[C@H](O)CC[C@]4(C)[C@H]3CC[C@]12C
Response: 9.65

Query: Field entry: CO[C@H]1[C@H](O)CC[C@]2(C)[C@H]3CC[C@]4(C)C(=O)CC[C@H]4[C@@H]3CC[C@@H]12
Response: 0.91

Query: Next compound up: C[C@@]12CC[C@H]3[C@@H](CC[C@@H]4C[C@@H](O)CC[C@]43C)[C@@H]1CC(=O)C2
Response: 34.7

Query: // next record C[C@@]12CC[C@H](O)C[C@H]1CC[C@H]1[C@@H]3CC(=O)C[C@@H]3CC[C@@H]12
Response: 3.56

----------
# Species on record: Rattus norvegicus
# PROTOCOL NOTES: Positive allosteric modulation of rat alpha1beta2gamma2L GABAA receptor expressed in Xenopus laevis oocytes assessed as potentiation of GABA-induced chloride current elicitation at 1 uM by two-electrode voltage clamp technique relative to control
# Type: cell-based
Lab note - cut at 1 for Ratio: true (1) if strictly below, false (0) if not.

Some solved cases for reference:
CC(=O)[C@H]1CC[C@H]2[C@@H]3CC[C@H]4C[C@H](O)CC[C@]4(C)[C@H]3CC[C@]12C | false (0)
CO[C@H]1[C@H]2CC[C@@H]3[C@H](CC[C@@]4(C)C(=O)CC[C@@H]34)[C@]2(C)CC[C@@H]1O | false (0)
C[C@]12CC[C@H]3[C@@H](CC[C@H]4C[C@H](O)CC[C@@]43C)[C@@H]1CC(=O)C2 | false (0)

Query: hey, is Ratio for C[C@@]12CC[C@@H]3[C@@H]4CC[C@H](O)C[C@H]4CC[C@H]3[C@@H]1CC(=O)C2 lower than 1 or not?
Response: false (0)

Query: Proceed to C[C@@]12CC[C@H]3[C@@H](CC[C@@H]4C[C@@H](O)CC[C@]43C)[C@@H]1CC(=O)C2
Response: false (0)

Query: Please answer likewise for CO[C@H]1C[C@@]2(C)[C@@H](CC[C@H]3[C@@H]4CC(=O)C[C@@]4(C)CC[C@@H]32)C[C@@H]1O
Response: false (0)

Query: Here is the next molecule: O=C1C[C@@H]2CC[C@H]3[C@@H](CC[C@@H]4C[C@@H](O)CC[C@H]43)[C@@H]2C1
Response: true (1)

Query: Now give it for CO[C@H]1[C@H]2CC[C@H]3[C@@H]4CC(=O)C[C@]4(C)CC[C@@H]3[C@]2(C)CC[C@@H]1O too.
Response: false (0)

Query: Continue with CO[C@H]1C[C@@]2(C)[C@@H](CC[C@@H]3[C@@H]2CC[C@]2(C)C(=O)CC[C@@H]32)C[C@@H]1O
Response: false (0)

Query: Lookup C[C@@]12CC[C@H](O)C[C@H]1CC[C@H]1[C@@H]3CC(=O)C[C@@H]3CC[C@@H]12
Response: false (0)

Query: Can you handle CO[C@@H]1C[C@]2(C)[C@H](CC[C@H]3[C@@H]4CC(=O)C[C@]4(C)CC[C@@H]32)C[C@H]1O next?
Response: false (0)

Query: Field entry: CO[C@H]1[C@H](O)CC[C@]2(C)[C@H]3CC[C@]4(C)CC(=O)C[C@H]4[C@@H]3CC[C@@H]12
Response: true (1)

Query: Now the molecule CO[C@@H]1C[C@]2(C)[C@H](CC[C@@H]3[C@@H]2CC[C@@]2(C)C(=O)CC[C@@H]32)C[C@H]1O
Response: true (1)

----------
# Organism: Rattus norvegicus
# PROTOCOL NOTES: Positive allosteric modulation of rat alpha1beta2gamma2L GABAA receptor expressed in Xenopus laevis oocytes assessed as potentiation of GABA-induced chloride current elicitation at 0.1 uM by two-electrode voltage clamp technique relative to control
# Type: cell-based
MEASURED PARAMETER: Ratio
Give your answer as a number; write no unit.

Example results:
C[C@@]12CC[C@@H]3[C@@H]4CC[C@H](O)C[C@H]4CC[C@H]3[C@@H]1CC(=O)C2 | 0.97
CO[C@@H]1C[C@]2(C)[C@H](CC[C@@H]3[C@@H]2CC[C@@]2(C)C(=O)CC[C@@H]32)C[C@H]1O | 0.93
CC(=O)[C@H]1CC[C@H]2[C@@H]3CC[C@H]4C[C@H](O)CC[C@]4(C)[C@H]3CC[C@]12C | 1.26
C[C@@]12CC[C@H]3[C@@H](CC[C@@H]4C[C@@H](O)CC[C@]43C)[C@@H]1CC(=O)C2 | 1.42
O=C1C[C@@H]2CC[C@H]3[C@@H](CC[C@@H]4C[C@@H](O)CC[C@H]43)[C@@H]2C1 | 0.8
C[C@]12CC[C@H]3[C@@H](CC[C@H]4C[C@H](O)CC[C@@]43C)[C@@H]1CC(=O)C2 | 1.01
CO[C@H]1[C@H]2CC[C@@H]3[C@H](CC[C@@]4(C)C(=O)CC[C@@H]34)[C@]2(C)CC[C@@H]1O | 1.21
CO[C@H]1[C@H]2CC[C@H]3[C@@H]4CC(=O)C[C@]4(C)CC[C@@H]3[C@]2(C)CC[C@@H]1O | 1.41

Query: Which Ratio is listed for CO[C@H]1C[C@@]2(C)[C@@H](CC[C@@H]3[C@@H]2CC[C@]2(C)C(=O)CC[C@@H]32)C[C@@H]1O ?
Response: 0.84

Query: Cool, now CO[C@H]1[C@H](O)CC[C@]2(C)[C@H]3CC[C@]4(C)C(=O)CC[C@H]4[C@@H]3CC[C@@H]12
Response: 1.08

Query: // query: CO[C@H]1[C@H](O)CC[C@]2(C)[C@H]3CC[C@]4(C)CC(=O)C[C@H]4[C@@H]3CC[C@@H]12
Response: 0.88

Query: Also C[C@@]12CC[C@H](O)C[C@H]1CC[C@H]1[C@@H]3CC(=O)C[C@@H]3CC[C@@H]12 , if possible.
Response: 0.93

Query: Record: CO[C@H]1C[C@@]2(C)[C@@H](CC[C@H]3[C@@H]4CC(=O)C[C@@]4(C)CC[C@@H]32)C[C@@H]1O
Response: 0.92

Query: Moving on to the next molecule: CO[C@@H]1C[C@]2(C)[C@H](CC[C@H]3[C@@H]4CC(=O)C[C@]4(C)CC[C@@H]32)C[C@H]1O
Response: 0.91
